Target: UniProtKB A0A0H2ZPN9
Sequence (A0A0H2ZPN9 24-247): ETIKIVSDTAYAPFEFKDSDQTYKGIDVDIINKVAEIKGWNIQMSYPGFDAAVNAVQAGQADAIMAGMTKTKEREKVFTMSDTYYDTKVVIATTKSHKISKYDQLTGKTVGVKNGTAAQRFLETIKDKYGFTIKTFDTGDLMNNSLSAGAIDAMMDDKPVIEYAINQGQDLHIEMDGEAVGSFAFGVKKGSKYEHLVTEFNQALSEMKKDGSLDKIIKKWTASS
Metric name: Kd (nM)
Numeric answer only, unit nM assumed.

The measured Kd associated with NC(=O)C[C@H](N)C(=O)O reads 1090

====

Target: SPD1098 SBD2 (GlnP) (Streptococcus pneumoniae, UniProt A0A0H2ZPN9)
Sequence (A0A0H2ZPN9 262-488): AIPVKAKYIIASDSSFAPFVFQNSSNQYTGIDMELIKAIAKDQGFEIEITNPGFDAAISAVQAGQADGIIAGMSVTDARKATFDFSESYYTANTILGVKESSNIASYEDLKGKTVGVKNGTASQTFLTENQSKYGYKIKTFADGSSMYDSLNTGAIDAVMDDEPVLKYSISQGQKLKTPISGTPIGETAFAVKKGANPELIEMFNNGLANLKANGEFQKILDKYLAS
Metric name: pKd
Value format note: pKd is -log10 of concentration (mol/L); just state the number.

Tested system SPD1098 SBD2 (GlnP) (Streptococcus pneumoniae, UniProt A0A0H2ZPN9); pKd recorded for NC(=O)CC[C@H](N)C(=O)O was 6.05
